# experimental target: cloned human dopamine D3 receptors (Homo sapiens, UniProt P35462)
# Construct: expressed in transfected cells; membrane homogenate
# Sequence (P35462 whole entry): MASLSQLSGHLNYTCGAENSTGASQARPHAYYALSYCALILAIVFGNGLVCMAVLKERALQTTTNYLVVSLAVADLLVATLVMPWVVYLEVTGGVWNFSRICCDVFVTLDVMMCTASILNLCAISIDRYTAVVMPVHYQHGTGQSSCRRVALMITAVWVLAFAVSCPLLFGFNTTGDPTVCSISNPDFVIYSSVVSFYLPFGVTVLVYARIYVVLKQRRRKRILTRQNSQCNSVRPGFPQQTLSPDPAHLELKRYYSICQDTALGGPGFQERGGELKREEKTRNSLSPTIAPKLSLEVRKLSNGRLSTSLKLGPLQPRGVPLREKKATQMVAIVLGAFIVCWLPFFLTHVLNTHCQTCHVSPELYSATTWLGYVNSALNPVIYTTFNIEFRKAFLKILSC
# test details: [N-Methyl-3H]Spiroperidol binding to cloned human dopamine D3 receptors
# settings: read-out: D3 Ki
# Description: [N-Methyl-^3H]Spiroperidol Binding to Cloned Human Dopamine D3 Receptors […] A 200 μl sample membrane homogenate is added to 200 μl of 1% SDS, vortexed and allowed to stand for 5 min. Aliquots (25, 50 and 100 μl) of this mixture are assayed in duplicate following the standard Bio-Rad DC protein assay protocol (kit catalog number 500-0112) and using reagent S. Absorbance readings are made at 750 nm (note: the most accurate protein OD readings are between 0.1-0.5 units). […]
pKi: −log10 of the molar value.
Returns one of t or f; t when pKi is >= 8.

compound: C[C@H]1CC[C@H](NC(=O)[C@@H]2C[C@H]2CN2CCC(c3nn(-c4cccnc4)c4ccccc34)CC2)CC1
experimental target: cloned human dopamine D3 receptors (Homo sapiens, UniProt P35462)
classification: f
//
compound: O=C([C@@H]1C[C@H]1CN1CCN(c2csc3cc(C(F)(F)F)ccc23)CC1)N1CCC[C@@H](CO)C1
experimental target: cloned human dopamine D3 receptors (Homo sapiens, UniProt P35462)
classification: f
//
compound: O=C(NC1CCN(Cc2cccc3ccccc23)CC1)C1CC1CN1CCC(c2noc3ccsc23)CC1 (racemic)
experimental target: cloned human dopamine D3 receptors (Homo sapiens, UniProt P35462)
classification: t
//
compound: CC(C)NC(=O)CN1CCN(C(=O)[C@@H]2C[C@H]2CN2CCN(c3csc4cc(C(F)(F)F)ccc34)CC2)CC1
experimental target: cloned human dopamine D3 receptors (Homo sapiens, UniProt P35462)
classification: f
//
compound: O=C(NC1CCNCC1)[C@@H]1C[C@H]1CN1CCC(c2csc3cc(C(F)(F)F)ccc23)CC1
experimental target: cloned human dopamine D3 receptors (Homo sapiens, UniProt P35462)
classification: t
//
compound: Cn1nc(C2CCN(C[C@@H]3C[C@H]3C(=O)NCC3CCN(C(=O)OC(C)(C)C)CC3)CC2)c2sccc21
experimental target: cloned human dopamine D3 receptors (Homo sapiens, UniProt P35462)
classification: f
//
compound: Cn1nc(C2CCN(C[C@@H]3C[C@H]3C(=O)N3CCC(N4CCCCC4)CC3)CC2)c2cccc(C(F)(F)F)c21
experimental target: cloned human dopamine D3 receptors (Homo sapiens, UniProt P35462)
classification: f
//
compound: O=C(NCCCn1cnc2ccccc21)[C@@H]1C[C@H]1CN1CCN(c2nn(-c3ccc(OC(F)(F)F)cc3)c3ccsc23)CC1
experimental target: cloned human dopamine D3 receptors (Homo sapiens, UniProt P35462)
classification: f
//
compound: O=C([C@@H]1C[C@H]1CN1CCN(c2csc3ncccc23)CC1)N1CCC[C@@H](Cn2ccnc2)C1
experimental target: cloned human dopamine D3 receptors (Homo sapiens, UniProt P35462)
classification: t
//
compound: Cn1nc(C2CCN(C[C@@H]3C[C@H]3C(=O)N[C@H]3CC[C@H](O)CC3)CC2)c2cccc(C(F)(F)F)c21
experimental target: cloned human dopamine D3 receptors (Homo sapiens, UniProt P35462)
classification: f
//
compound: O=C(NCCCN1CCCCC1)[C@@H]1C[C@H]1CN1CCC(c2noc3cc(C(F)(F)F)ccc23)CC1
experimental target: cloned human dopamine D3 receptors (Homo sapiens, UniProt P35462)
classification: t
//
compound: C[C@H]1CC[C@H](NC(=O)C2(CCN3CCC(c4noc5ccsc45)CC3)CC2)CC1 [832241A]
experimental target: cloned human dopamine D3 receptors (Homo sapiens, UniProt P35462)
classification: f
